# credit: patent US12344631B2

Below: a set of entries, each annotated with reported EC (2-fold).
Tested on: AREc32 reporter cell line (antioxidant response element of rat Gsta2, Nrf2 target gene)
Assay: AREc32 luciferase reporter activation
Format: cell-based, human
Settings: human, Arec32, 19 h; concentration increasing luminescence signal 2-fold above vehicle; nineteen hours; read-out: AREc32 EC2X (nM) (Mean ± SD)
Experimental: […] The effect of several compounds disclosed herein on luciferase reporter activation was assessed in the AREc32 reporter cell line (see Table 10 and Table 11). […] After incubation for 5 min at room temperature, the luminescence signal was measured on a PHERAstar plate reader. The EC2X value was determined using Excel and GraphPad Prism software. […]
Answer in nM, number only, no unit symbol.

Solved entries:
[
  {
    "COMPOUND": "CC1(C)CC[C@]2(c3nnn(CCF)n3)CC[C@]3(C)[C@H](C(=O)C=C4[C@@]5(C)C=C(C#N)C(=O)C(C)(C)[C@@H]5CC[C@]43C)[C@@H]2C1",
    "EC (2-fold) [nM]": 28.4
  },
  {
    "COMPOUND": "Cc1nc([C@]23CCC(C)(C)C[C@H]2[C@H]2C(=O)C=C4[C@@]5(C)C=C(C#N)C(=O)C(C)(C)[C@@H]5CC[C@@]4(C)[C@]2(C)CC3)no1",
    "EC (2-fold) [nM]": 21.5
  },
  {
    "COMPOUND": "CC1(C)CC[C@]2(c3noc(C(F)(F)F)n3)CC[C@]3(C)[C@H](C(=O)C=C4[C@@]5(C)C=C(C#N)C(=O)C(C)(C)[C@@H]5CC[C@]43C)[C@@H]2C1",
    "EC (2-fold) [nM]": 64.9
  },
  {
    "COMPOUND": "Cc1noc([C@]23CCC(C)(C)C[C@H]2[C@H]2C(=O)C=C4[C@@]5(C)C=C(C#N)C(=O)C(C)(C)[C@@H]5CC[C@@]4(C)[C@]2(C)CC3)n1 [CC2, reference compound]",
    "EC (2-fold) [nM]": 8.59
  }
]

-- ask Report EC (2-fold) for `CC1(C)CC[C@]2(c3noc(CO)n3)CC[C@]3(C)[C@H](C(=O)C=C4[C@@]5(C)C=C(C#N)C(=O)C(C)(C)[C@@H]5CC[C@]43C)[C@@H]2C1`
-- reply 10.5
